Can you tell me inhibition for the items I'm about to list?
Test summary: displacement of TO-PRO-1 from CAG DNA duplex, counter-screen for rCAG RNA repeat binder project, biochemical, fluorescence, TO-PRO-1 dye, d(CAG) DNA oligo (AID 652068);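 also: 0% = DNA dye mix with DMSO and 100% = 100 µM mitoxantrone; hits displace the dye from DNA and so lower well fluorescence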
Cond: d(CAG) DNA oligo TO-PRO-1 dye displacement, at 3 µM, stronger effect = higher value
Hit rate of the full screen: of about 4,300 compounds, about 4,000 (93%) were called active. The set was probably picked from earlier hits. Only a sample is shown.
One number for each entry, in %.

Guide cases for inhibition, answers given:
>>> experimental_result("CC(=O)Nc1ccc(C(=O)Nc2nc(-c3cc(C)n(Cc4ccccc4)c3C)cs2)cc1")
14.6
>>> experimental_result("O=C(CCCN1C(=O)/C(=C\\c2ccco2)SC1=S)Nc1cccc2ccccc12")
13.7
>>> experimental_result("CC(=O)Nc1ccc(S(=O)(=O)Nc2nc(-c3ccc(C(C)(C)C)cc3)cs2)cc1")
30.7
>>> experimental_result("COc1ccc(C(N)c2csc(NC(=O)Nc3cccc(C(F)(F)F)c3)n2)cc1 (stereo unspecified)")
10.1
>>> experimental_result("N#Cc1c(-c2ccccc2)cc(-c2ccccc2)nc1SCC(=O)O")
13

Parameters: items (list). Returns: inhibition for each item.
1. NC(=O)c1c(Nc2nc3c(F)cccc3s2)sc2c1CCCC2
2. Cc1ccccc1-n1c(SCC(=O)Nc2cccc3ccccc23)nc(O)cc1=O
3. CCOC(=O)c1csc(NC(=O)Nc2cccc(OC)c2)n1
4. CC(C)(C)C1C/C(=C/c2ccco2)C(=O)/C(=C/c2ccco2)C1 (stereo unspecified)

1. 14.3
2. 7.03
3. 16.7
4. 17.1

Parameters: items (list). Returns: inhibition for each item.
1. CC(C)c1ccc(Nc2nnc(SCC(=O)c3nnc(-c4ccccc4)o3)s2)cc1
2. COc1ccc(C(=O)/C=C/c2ccc(-c3ccccc3)cc2)cc1CSCC(=O)O
3. Cn1c2ccccc2c2cc(/C=C(\NC(=O)c3ccccc3)C(=O)NCC(=O)O)ccc21

1. 27.2
2. 50.7
3. 12.6

Parameters: items (list). Returns: inhibition for each item.
1. O=C(Cc1ccccc1)Nc1ccc(C(=O)Nc2ccccc2C(=O)O)cc1
2. O=C(O)c1ccc2c(c1)C(=O)N(c1ccc(/C=C/C(=O)c3ccccc3)cc1)C2=O
3. N#Cc1c(-c2ccccc2)nc(SCc2cccc(C(F)(F)F)c2)[nH]c1=O
4. NC(c1ccccc1)c1csc(NC(=O)Nc2cccc(C(F)(F)F)c2)n1 (stereo unspecified)
5. O=C(O)c1[nH]c2ccccc2c1C(c1cccc(O)c1)c1c(C(=O)O)[nH]c2ccccc12

1. 10.5
2. 23.6
3. 50
4. 15.2
5. 12.6

Parameters: items (list). Returns: inhibition for each item.
1. N#Cc1c(-c2ccccc2)nc(SCc2ccc([N+](=O)[O-])cc2)[nH]c1=O
2. CCc1ccc(N2CC(C(=O)Nc3ccc(S(=O)(=O)Nc4nccs4)cc3)CC2=O)cc1 (stereo unspecified)
3. CC(=O)Nc1ccc(-c2csc(NC(=O)Nc3ccccc3)n2)cc1

1. 17.4
2. 16.7
3. 22.8

Hello, please tell me recorded inhibition for this one: Cc1ccc(CSc2nc(-c3ccccc3)c(C#N)c(=O)[nH]2)cc1
28.7

###

Test summary: displacement of TO-PRO-1 from CAG DNA duplex, counter-screen for rCAG RNA repeat binder project, biochemical, fluorescence, TO-PRO-1 dye, d(CAG) DNA oligo (AID 652068)
Cond: d(CAG) DNA oligo TO-PRO-1 dye displacement, at 3 µM, stronger effect = higher value
About 4,000 (93%) of roughly 4,300 compounds were called active. The set was probably picked from earlier hits. A selection follows.
Assign TRUE whenever inhibition does not fall below 10%; assign FALSE whenever it does.

Use the examples below as a reference point.
>>> class("CCOc1ccc(-n2c(SCC(=O)Nc3cc(C(=O)O)ccc3Cl)nc3ccccc3c2=O)cc1")
"TRUE"
>>> class("COc1ccc(S(=O)(=O)NC(=O)C2(C)CCN2C(=O)c2ccccc2CCc2ccccc2)cc1 (stereo unspecified)")
"FALSE"
>>> class("CC(C)=CCCC1(C)C=Cc2c(ccc3c2[nH]c2cc(O)c(C)cc23)O1 (stereo unspecified)")
"TRUE"
>>> class("Cc1ccc(S(=O)(=O)N2[C@@H](c3ccccc3F)C(C(=O)O)=CC[C@H]2c2ccc(Cl)cc2)cc1")
"TRUE"
>>> class("Cc1ccc([C@@H]2CC=C(C(=O)O)[C@H](c3cccc(Cl)c3)N2S(=O)(=O)c2ccc(C)cc2)cc1")
"TRUE"

# ---- query compound ----
Textbook exercise: given the entry COc1cccc(-c2coc3cc4oc(=O)c(CC(=O)O)c(C)c4cc23)c1 , state whether its inhibition is greater than or equal to 10%.
TRUE

###

Can you tell me inhibition for the items I'm about to list?
Test summary: displacement of TO-PRO-1 from CAG DNA duplex, counter-screen for rCAG RNA repeat binder project, biochemical, fluorescence, TO-PRO-1 dye, d(CAG) DNA oligo (AID 652068);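 also: 0% = DNA dye mix with DMSO and 100% = 100 µM mitoxantrone; hits displace the dye from DNA and so lower well fluorescence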
Cond: d(CAG) DNA oligo TO-PRO-1 dye displacement, at 3 µM, stronger effect = higher value
The campaign covered roughly 4,300 compounds. About 4,000 (93%) were called active. The set was probably picked from earlier hits. Not all results are given here.

>>> experimental_result("CC1(C(=O)NS(=O)(=O)Cc2cccc(Cl)c2)CCN1C(=O)Cc1ccc(Cl)cc1Cl (centres undefined)")
"36.2% (active)"

Parameters: items (list). Returns: inhibition for each item.
1. COc1ccc(S(=O)(=O)/N=C2\C=C(NS(=O)(=O)c3ccccc3)C(=O)c3ccccc32)cc1
2. CSc1nnc(NC(=O)c2nc(S(=O)(=O)Cc3ccc(C)cc3)ncc2Cl)s1
3. Cc1cc(OC(C)C(=O)Nc2ccc(S(=O)(=O)Nc3onc(C)c3C)cc2)cc(C)c1Cl (centres undefined)
4. CCN(CC)C(=O)CSC(Nc1cccc(F)c1)=C(C#N)C#N
5. COc1ccc(OCC(=O)Nc2nnc(-c3ccco3)s2)cc1
6. C[C@H]([C@@H](O)[C@@H](O)[C@@H](C)C(C)(C)C)[C@H]1CC[C@H]2C3CC[C@H]4C[C@H](OS(=O)(=O)O)[C@@H](OS(=O)(=O)O)C[C@]4(C)[C@H]3CC[C@]12C (some centres undefined)
7. Clc1ccccc1CSc1nnc(-c2ccco2)c(-c2ccco2)n1

1: 56.1% (active); 2: 11.6% (active); 3: 26.6% (active); 4: 13.2% (active); 5: 8.39% (active); 6: 61.2% (active); 7: 30% (active)

Parameters: items (list). Returns: inhibition for each item.
1. CO/N=C(\C(=O)N[C@@H]1C(=O)N2C(C(=O)O)=C(COC(C)=O)CS[C@H]12)c1csc(N)n1 (stereo in doubt)
2. Cc1oc2c(F)c(F)c(F)c(F)c2c1S(=O)(=O)Nc1cccc(C(F)(F)F)c1
3. Cc1cc2nc(-c3ccco3)c(Cc3cccc(F)c3)n2c(C)c1Br

1: 17.5% (active); 2: 13.1% (active); 3: 11.8% (active)

###

Test summary: displacement of TO-PRO-1 from CAG DNA duplex, counter-screen for rCAG RNA repeat binder project, biochemical, fluorescence, TO-PRO-1 dye, d(CAG) DNA oligo (AID 652068);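 also: 0% = DNA dye mix with DMSO and 100% = 100 µM mitoxantrone; hits displace the dye from DNA and so lower well fluorescence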
Cond: d(CAG) DNA oligo TO-PRO-1 dye displacement, at 3 µM, stronger effect = higher value
About 4,000 (93%) of roughly 4,300 compounds were called active. So high a share suggests a set chosen from earlier hits. Not all results are given here.
Result type: inhibition (%)
Answers are plain numbers, in %.

>>> experimental_result("C=CCNc1nc(N)c(C(=C(C#N)C#N)c2ccccc2)s1")
9.76
>>> experimental_result("O=C(N[C@@H](Cc1c[nH]c2ccccc12)C(=O)O)OCC1c2ccccc2-c2ccccc21")
23.8
>>> experimental_result("O=c1ccc2c(-c3ccccc3S(=O)(=O)O)c3ccc(O)c(O)c3oc-2c1O")
69.2

Parameters: items (list). Returns: inhibition for each item.
1. COc1ccc(-c2cc(=O)oc3cc(OCC(=O)N[C@@H](Cc4c[nH]c5ccccc45)C(=O)O)ccc23)cc1
2. Nc1cccc(-c2cc(-c3ccccc3)nc(-c3cccc(N)c3)n2)c1

1. 26.4
2. 6.95

###

Test summary: displacement of TO-PRO-1 from CAG DNA duplex, counter-screen for rCAG RNA repeat binder project, biochemical, fluorescence, TO-PRO-1 dye, d(CAG) DNA oligo (AID 652068);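 also: 0% = DNA dye mix with DMSO and 100% = 100 µM mitoxantrone; hits displace the dye from DNA and so lower well fluorescence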
Cond: d(CAG) DNA oligo TO-PRO-1 dye displacement, at 3 µM, stronger effect = higher value
The campaign covered roughly 4,300 compounds. About 4,000 (93%) were called active. The set was probably picked from earlier hits. A selection follows.
Assign class 1 whenever inhibition does not fall below 20%; assign class 0 whenever it does.

>>> class("Cc1ccc(-n2ncc3c(Nc4cccc(C(=O)O)c4)ncnc32)cc1")
"class 0"

# ---- query molecule ----
Textbook exercise: given the entry Cc1cccc(OCC(=O)Nc2ccc(C(=O)O)cc2NC(=O)COc2cccc(C)c2)c1 , state whether its inhibition is greater than or equal to 20%.
class 0
